System: SK-MEL-2 melanoma
Protocol: NCI tumour cell line growth inhibition, 48 h; in the data active means GI50 below about 0.43 µM; inactive means the rest
Write down one outcome, taken from 1 for active, -1 for inactive

The following compounds have reported results that may help.
{"columns": ["Compound", "Label value"],
 "data": [
  ["COc1ccccc1/C=C1\\COc2ccc(-c3ccccc3)cc2C1=O", -1],
  ["C=CC(=O)N1CCC(c2ccc(C(N)=O)c(-c3ccc(Oc4ccccc4)cc3)n2)CC1", -1],
  ["CC1=CC2C(C(O)CC3(C)C2CC(C)C32OCOC23COCO3)C2(C)C/C(=C/O)C(=O)C=C12 (centres undefined)", -1]
]}

Please turn your attention to the following entry.
[ask] What call does the record list for O=C(CCN1CCCC1)Nc1ccc2c(NCc3ccccc3)c3ccccc3nc2c1 ?
[reply] -1

* * *

Test system: NCI-H23 lung
Protocol: NCI tumour cell line growth inhibition, 48 h
Readout label: TGI (µM)
Numbers only, in µM.

Here is how some molecules turned out for TGI.
{"columns": ["Molecule", "Target or system", "Output unit", "Reading"],
 "data": [
  ["CCC[CH2][Sn]([CH2]CCC)([O]C(=O)c1cc(OC)c(OC)cc1OC)[O][Sn]([CH2]CCC)([CH2]CCC)[O]C(=O)c1cc(OC)c(OC)cc1OC", "NCI-H23 lung", "µM", 1.19],
  ["COc1ccc2c(c1)nc(NNC(=O)c1cnccn1)c1cccn12", "NCI-H23 lung", "µM", 5.24],
  ["N#Cc1nc(-c2ccc(F)cc2)oc1S(=O)(=O)N1CCCCC1", "NCI-H23 lung", "µM", 4.92]
]}

# batch: return TGI for each of the 5 molecules below
1. CC(C)(C)OC(=O)N/C(C=O)=C\C1CCCCC1
2. COc1cc(/C=C2\CC/C(=C\c3cc(OC)c(O)c(OC)c3)C2=O)cc(OC)c1O
3. NC(Cc1ccc(OCc2ccccc2)cc1)C(=O)NC(Cc1ccccc1)C(=O)Oc1c(Cl)c(Cl)c(Cl)c(Cl)c1Cl (configuration not stated)
4. COC(=O)c1cc(-c2ccccc2)[nH]c1N/N=C/c1c(Cl)cccc1Cl
5. O=[N+]([O-])/C=C/c1c(Cl)cccc1Cl

[reply]
1: 62; 2: 5.72; 3: 30.6; 4: 15.4; 5: 16.8

* * *

Tested on: UO-31 renal
Protocol: NCI tumour cell line growth inhibition, 48 h
What TGI was measured for each of the following?

{"columns": ["Compound", "Target or system", "Reading"],
 "data": [
  ["C[C@H]1[C@H](C)N1CC(O)Cn1ccnc1[N+](=O)[O-] (stereo partly drawn)", "UO-31 renal", "> 100 µM"],
  ["COC(=O)c1ccccc1C1CN=NC12Cc1c(ccc3c1CCC3)C2=O (stereo not drawn)", "UO-31 renal", "> 100 µM"],
  ["COC(=O)c1cc(-c2ccccc2)[nH]c1N/N=C/c1c(Cl)cccc1Cl", "UO-31 renal", "> 56.3 µM"],
  ["CO/N=C(\\COc1ccc2c(=O)c3ccccc3oc2c1)c1ccccc1", "UO-31 renal", "63 µM"],
  ["O=C(/C=C(\\O)C(=O)O)/C=C(\\O)c1ccccc1", "UO-31 renal", "> 1 µM"],
  ["O=[N+]([O-])/C=C/c1c(Cl)cccc1Cl", "UO-31 renal", "13.3 µM"]
]}

# batch: return TGI for each of the 2 compounds below
1. C=CC(=O)N1CCC(c2ccc(C(N)=O)c(-c3ccc(Oc4ccccc4)cc3)n2)CC1
2. C=C1C(=O)O[C@H]2[C@H]1CC/C(COC(=O)CCCCCC(=O)OC/C1=C/CC[C@@]3(C)O[C@H]3[C@H]3OC(=O)C(=C)[C@@H]3CC1)=C\CC[C@@]1(C)O[C@@H]21

[reply]
1: > 100 µM; 2: 2.86 µM
